This collection of values is drawn from patent US10570179B2.

assay: Cytotoxicity assay (CellTiter-Glo cell viability); format: cell-based; conditions: African green monkey
Numbered stars: 1 amine (or outer) side, 2 acyl side, 3 side chain; on linkers, the order of the positions; unused ones are H or OH. Bridge positions count the residues as written; N and C are the ends. Square brackets hold non-standard residues; d marks the D form. Peptide text beside a SMILES is read from it. * marks the point of attachment. Piperazine(2S-CO,4-Me) = CN1CCN[C@H](C(=O)O)C1; Phe(3,5-F2) = N[C@@H](Cc1cc(F)cc(F)c1)C(=O)O; Phe(3-Me) = Cc1cccc(C[C@H](N)C(=O)O)c1; NH(4-Cl-2-F-phenyl) = Fc1cc(Cl)ccc1N*; Pro(4R-Me) = C[C@H]1CN[C@H](C(=O)O)C1; aThr = C[C@H](O)[C@H](N)C(=O)O; CO = O=C([*:1])[*:2]
measurement_name: IC50 at 72 h

Cc1cccc(C[C@H](NC(=O)Nc2ccc(Cl)cc2F)C(=O)N[C@@H]2C(=O)N3CCC[C@H]3C(=O)N3CCN(C)C[C@H]3C(=O)N[C@@H](C)C(=O)N3C[C@H](C)C[C@H]3C(=O)O[C@H]2C)c1 [Compound 11] ({NH(4-Cl-2-F-phenyl)-CO}-[Phe(3-Me)][aThr]P[Piperazine(2S-CO,4-Me)]A[Pro(4R-Me)]; ester 2-C) ... > 10 µM

Need IC50 at 72 h for each of these compounds.
1. Cc1cccc(C[C@H](NC(=O)Nc2ccc(Cl)cc2F)C(=O)N[C@H]2COC(=O)[C@@H]3C[C@@H](C)CN3C(=O)[C@H](C)NC(=O)[C@@H]3CCCCN3C(=O)[C@@H]3C[C@@H](O)CN3C2=O)c1
2. Cc1cccc(C[C@H](NC(=O)Nc2ccc(Cl)cc2F)C(=O)N[C@H]2COC(=O)[C@@H]3C[C@@H](C)CN3C(=O)[C@H](C)NC(=O)[C@@H]3CCCCN3C(=O)[C@@H]3C[C@H](N)CN3C2=O)c1

["> 50 µM", "> 50 µM"]

Please supply the value of reported IC50 at 72 h for the item C[C@@H]1C[C@H]2C(=O)OC[C@H](NC(=O)[C@H](Cc3cc(F)cc(F)c3)NC(=O)Nc3ccc(Cl)cc3F)C(=O)N3CCC[C@H]3C(=O)N3CCN(C)C[C@H]3C(=O)N[C@@H](C)C(=O)N2C1 [Compound 34] ({NH(4-Cl-2-F-phenyl)-CO}-[Phe(3,5-F2)]SP[Piperazine(2S-CO,4-Me)]A[Pro(4R-Me)]; ester 2-C)
> 50 µM

---

test: Plasma protein binding, rapid equilibrium dialysis; assay type: in vitro ADME, mouse; conditions: mouse, 4 h, 10 μM, pH 7.4
Numbered stars: 1 amine (or outer) side, 2 acyl side, 3 side chain; on linkers, the order of the positions; unused ones are H or OH. Bridge positions count the residues as written; N and C are the ends. Square brackets hold non-standard residues; d marks the D form. Peptide text beside a SMILES is read from it. * marks the point of attachment. Piperazine(2S-CO,4-Me) = CN1CCN[C@H](C(=O)O)C1; X6 = O=C([C@@H]1CS(=O)(=O)CCN1[*:1])[*:2]; Phe(3-OMe) = COc1cccc(C[C@H](N)C(=O)O)c1; Morpholine(3S-CO) = O=C(O)[C@@H]1COCCN1; Phe(3-Me) = Cc1cccc(C[C@H](N)C(=O)O)c1; NH(4-Cl-2-F-phenyl) = Fc1cc(Cl)ccc1N*; Pro(4R-Me) = C[C@H]1CN[C@H](C(=O)O)C1; X1 = O=C([C@@H]1CSCCN1[*:1])[*:2]; Hyp = O=C(O)[C@@H]1C[C@@H](O)CN1; aThr = C[C@H](O)[C@H](N)C(=O)O; Pip = O=C(O)[C@@H]1CCCCN1; X3 = c1cc2c(cc1N*)OCCO2; CO = O=C([*:1])[*:2]
measurement_name: Mouse (%)
Numbers only, in %.

Take each entry in turn and give its Mouse.
1. Cc1cccc(C[C@H](NC(=O)Nc2ccc3c(c2)OCCO3)C(=O)N[C@@H]2C(=O)N3C[C@H](O)C[C@H]3C(=O)N3CCOC[C@H]3C(=O)N[C@@H](C)C(=O)N3C[C@H](C)C[C@H]3C(=O)O[C@H]2C)c1 [Compound 27] ({X3-CO}-[Phe(3-Me)][aThr][Hyp][Morpholine(3S-CO)]A[Pro(4R-Me)]; ester 2-C)
2. Cc1cccc(C[C@H](NC(=O)Nc2ccc(Cl)cc2F)C(=O)N[C@@H]2C(=O)N3CCC[C@H]3C(=O)N3CCCC[C@H]3C(=O)N[C@@H](C)C(=O)N3C[C@H](C)C[C@H]3C(=O)O[C@H]2C)c1 [Compound 3] ({NH(4-Cl-2-F-phenyl)-CO}-[Phe(3-Me)][aThr]P[Pip]A[Pro(4R-Me)]; ester 2-C)
3. COc1cccc(C[C@H](NC(=O)Nc2ccc(Cl)cc2F)C(=O)N[C@H]2COC(=O)[C@@H]3C[C@@H](C)CN3C(=O)[C@H](C)NC(=O)[C@@H]3CN(C)CCN3C(=O)[C@@H]3CCCN3C2=O)c1 [Compound 19] ({NH(4-Cl-2-F-phenyl)-CO}-[Phe(3-OMe)]SP[Piperazine(2S-CO,4-Me)]A[Pro(4R-Me)]; ester 2-C)

93.2
99.3
98.3

# return Mouse for each item in the list
1. Cc1cccc(C[C@H](NC(=O)Nc2ccc(Cl)cc2F)C(=O)N[C@@H]2C(=O)N3CCC[C@H]3C(=O)N3CCS(=O)(=O)C[C@H]3C(=O)N[C@@H](C)C(=O)N3C[C@H](C)C[C@H]3C(=O)O[C@H]2C)c1 [Compound 40] ({NH(4-Cl-2-F-phenyl)-CO}-[Phe(3-Me)][aThr]P[X6]A[Pro(4R-Me)]; ester 2-C)
2. Cc1cccc(C[C@H](NC(=O)Nc2ccc(Cl)cc2F)C(=O)N[C@@H]2C(=O)N3CCC[C@H]3C(=O)N3CCN(C)C[C@H]3C(=O)N[C@@H](C)C(=O)N3C[C@H](C)C[C@H]3C(=O)O[C@H]2C)c1 [Compound 11] ({NH(4-Cl-2-F-phenyl)-CO}-[Phe(3-Me)][aThr]P[Piperazine(2S-CO,4-Me)]A[Pro(4R-Me)]; ester 2-C)
3. Cc1cccc(C[C@H](NC(=O)Nc2ccc(Cl)cc2F)C(=O)N[C@@H]2C(=O)N3C[C@H](O)C[C@H]3C(=O)N3CCSC[C@H]3C(=O)N[C@@H](C)C(=O)N3C[C@H](C)C[C@H]3C(=O)O[C@H]2C)c1 [Compound 41] ({NH(4-Cl-2-F-phenyl)-CO}-[Phe(3-Me)][aThr][Hyp][X1]A[Pro(4R-Me)]; ester 2-C)

1: 99.4; 2: 98.8; 3: 99.9

---

experiment: Plasma pharmacokinetics; type: in vivo, male BALB/c mice; conditions: male, BALB/c, mouse, in vivo, iv, 10 mg/kg; Route i.v.; read-out: AUClast
Numbered stars: 1 amine (or outer) side, 2 acyl side, 3 side chain; on linkers, the order of the positions; unused ones are H or OH. Bridge positions count the residues as written; N and C are the ends. Square brackets hold non-standard residues; d marks the D form. Peptide text beside a SMILES is read from it. * marks the point of attachment. Piperazine(2S-CO,4-Me) = CN1CCN[C@H](C(=O)O)C1; Phe(3-Me) = Cc1cccc(C[C@H](N)C(=O)O)c1; Pro(4R-Me) = C[C@H]1CN[C@H](C(=O)O)C1; Hyp = O=C(O)[C@@H]1C[C@@H](O)CN1; NH(4-Me-phenyl) = Cc1ccc(N*)cc1; aThr = C[C@H](O)[C@H](N)C(=O)O; Pip = O=C(O)[C@@H]1CCCCN1; CO = O=C([*:1])[*:2]
measurement_name: AUC(0-t) (ng·h/mL)
Answers are plain numbers, in ng·h/mL.

Cc1ccc(NC(=O)N[C@@H](Cc2cccc(C)c2)C(=O)N[C@@H]2C(=O)N3C[C@H](O)C[C@H]3C(=O)N3CCN(C)C[C@H]3C(=O)N[C@@H](C)C(=O)N3C[C@H](C)C[C@H]3C(=O)O[C@H]2C)cc1 [Compound 30] ({NH(4-Me-phenyl)-CO}-[Phe(3-Me)][aThr][Hyp][Piperazine(2S-CO,4-Me)]A[Pro(4R-Me)]; ester 2-C) ... 2620

Now, please, on to the next compound.
Given the compound Cc1ccc(NC(=O)N[C@@H](Cc2cccc(C)c2)C(=O)N[C@@H]2C(=O)N3CCC[C@H]3C(=O)N3CCCC[C@H]3C(=O)N[C@@H](C)C(=O)N3C[C@H](C)C[C@H]3C(=O)O[C@H]2C)cc1 [Compound 1] ({NH(4-Me-phenyl)-CO}-[Phe(3-Me)][aThr]P[Pip]A[Pro(4R-Me)]; ester 2-C) , write its reported AUC(0-t).
7590

---

I'd be grateful if you could share measured Mouse for these entries.
assay: Plasma protein binding, rapid equilibrium dialysis; type: in vitro ADME, mouse; settings: mouse, 4 h, 10 μM, pH 7.4
Numbered stars: 1 amine (or outer) side, 2 acyl side, 3 side chain; on linkers, the order of the positions; unused ones are H or OH. Bridge positions count the residues as written; N and C are the ends. Square brackets hold non-standard residues; d marks the D form. Peptide text beside a SMILES is read from it. * marks the point of attachment. Piperazine(2S-CO,4-Me) = CN1CCN[C@H](C(=O)O)C1; Morpholine(3S-CO) = O=C(O)[C@@H]1COCCN1; Phe(3-Me) = Cc1cccc(C[C@H](N)C(=O)O)c1; Pro(4R-Me) = C[C@H]1CN[C@H](C(=O)O)C1; Hyp = O=C(O)[C@@H]1C[C@@H](O)CN1; NH(4-Et-phenyl) = CCc1ccc(N*)cc1; aThr = C[C@H](O)[C@H](N)C(=O)O; Pip = O=C(O)[C@@H]1CCCCN1; CO = O=C([*:1])[*:2]; X2 = Fc1cc(N*)ccc1Cl
Answers are plain numbers, in %.

Cc1cccc(C[C@H](NC(=O)Nc2ccc(Cl)c(F)c2)C(=O)N[C@@H]2C(=O)N3CCC[C@H]3C(=O)N3CCCC[C@H]3C(=O)N[C@@H](C)C(=O)N3C[C@H](C)C[C@H]3C(=O)O[C@H]2C)c1 [Compound 35] ({X2-CO}-[Phe(3-Me)][aThr]P[Pip]A[Pro(4R-Me)]; ester 2-C) ... 99.7
CCc1ccc(NC(=O)N[C@@H](Cc2cccc(C)c2)C(=O)N[C@@H]2C(=O)N3C[C@H](O)C[C@H]3C(=O)N3CCCC[C@H]3C(=O)N[C@@H](C)C(=O)N3C[C@H](C)C[C@H]3C(=O)O[C@H]2C)cc1 [Compound 25] ({NH(4-Et-phenyl)-CO}-[Phe(3-Me)][aThr][Hyp][Pip]A[Pro(4R-Me)]; ester 2-C) ... 99.5
CCc1ccc(NC(=O)N[C@@H](Cc2cccc(C)c2)C(=O)N[C@H]2COC(=O)[C@@H]3C[C@@H](C)CN3C(=O)[C@H](C)NC(=O)[C@@H]3CN(C)CCN3C(=O)[C@@H]3CCCN3C2=O)cc1 [Compound 16] ({NH(4-Et-phenyl)-CO}-[Phe(3-Me)]SP[Piperazine(2S-CO,4-Me)]A[Pro(4R-Me)]; ester 2-C) ... 97.1

// Input: CCc1ccc(NC(=O)N[C@@H](Cc2cccc(C)c2)C(=O)N[C@@H]2C(=O)N3C[C@H](O)C[C@H]3C(=O)N3CCOC[C@H]3C(=O)N[C@@H](C)C(=O)N3C[C@H](C)C[C@H]3C(=O)O[C@H]2C)cc1 [Compound 24] ({NH(4-Et-phenyl)-CO}-[Phe(3-Me)][aThr][Hyp][Morpholine(3S-CO)]A[Pro(4R-Me)]; ester 2-C) . Output its Mouse only.
98.2
